The origin of these recorded values is ChEMBL document CHEMBL1201861.

# Tested on: SH-4;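 note: growth inhibition of SH-4 cells, read out with a cell viability assay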
# PROTOCOL_DESCRIPTION: cells
# Type: functional, cell-based, Homo sapiens
# RUN_CONDITIONS: Homo sapiens, SH-4
# Description: SANGER: Inhibition of human SH-4 cell growth in a cell viability assay.
pIC50: −log10 of the molar value.
Measured pIC50, listed per entry for reference.

These solved cases illustrate the format of a correct answer.
Problem: Item C=CCc1cccc(/C=N/NC(=O)CN2CCN(Cc3ccccc3)CC2)c1O has what recorded pIC50?
Result: < 5.59

Problem: Entry C=CCNC1=C2C[C@@H](C)C[C@H](OC)[C@H](O)[C@@H](C)/C=C(\C)[C@H](OC(N)=O)[C@@H](OC)/C=C\C=C(/C)C(=O)NC(=CC1=O)C2=O has what pIC50?
Result: 6.94

Problem: Given the compound CNC(=O)c1cc(Oc2ccc(NC(=O)Nc3ccc(Cl)c(C(F)(F)F)c3)cc2)ccn1 , what is its reported pIC50?
Result: 6.18

More entries:
Problem: // query pIC50 value for entry O=C(NOCC1CC1)c1ccc(F)c(F)c1Nc1ccc(I)cc1Cl
Result: 6.33

* * *

# System: ES8
# PROTOCOL_DESCRIPTION: cells
# Type: functional, cell-based, Homo sapiens
# RUN_CONDITIONS: Homo sapiens, ES8
# Description: SANGER: Inhibition of human ES8 cell growth in a cell viability assay.
OUTCOME_MEASURE: IC50 (µM)
Quick note: give the figure in µM, leave out the unit.

Problem: Kindly state the measured IC50 obtained for O=C(/C=C/c1ccccc1)NC(NC(=S)Nc1cccc2cccnc12)C(Cl)(Cl)Cl (stereo not given) with ES8.
Result: 8.64

Problem: Lab request: please report IC50 under test system ES8 for Cn1cncc1[C@@](N)(c1ccc(Cl)cc1)c1ccc2c(c1)c(-c1cccc(Cl)c1)cc(=O)n2C
Result: 10.4

* * *

# Test system: RS4-11;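 note: growth inhibition of RS4-11 cells, read out by a cell viability assay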
# PROTOCOL_DESCRIPTION: cells
# Format: functional, cell-based
# RUN_CONDITIONS: Homo sapiens
# Description: SANGER: Inhibition of human RS4-11 cell growth in a cell viability assay.
Each entry below lists one item and its recorded IC50 value.
Kindly answer with a numeric value in nM, unit omitted.

Problem: # lookup: IC50 of Nc1ccn([C@@H]2O[C@H](CO)[C@@H](O)[C@@H]2O)c(=O)n1 [CYTARABINE]
Result: 381

Problem: For the molecule CCC1=C[C@@H]2CN(C1)Cc1c([nH]c3ccccc13)[C@@](C(=O)OC)(c1cc3c(cc1OC)N(C)[C@H]1[C@@](O)(C(=O)OC)[C@H](OC(C)=O)[C@]4(CC)C=CCN5CC[C@]31[C@@H]54)C2 [VINORELBINE] , what IC50 is on record?
Result: 7.99

* * *

# Tested on: GP5d
# PROTOCOL_DESCRIPTION: cells
# Type: functional, cell-based, Homo sapiens
# RUN_CONDITIONS: Homo sapiens, GP5d
# Description: SANGER: Inhibition of human GP5d cell growth in a cell viability assay.
This listing pairs compounds with measured IC50.

Problem: Requested field: IC50. Item: Cc1ccc(Nc2nccc(N(C)c3ccc4c(C)n(C)nc4c3)n2)cc1S(N)(=O)=O
Result: > 8 µM

---
Problem: Returns the measured IC50 for the input compound. Input: COC(=O)CNC(=O)C(=O)OC
Result: 636 µM

Problem: I have this compound here, Cn1cc(C2=C(c3ccc(Cl)cc3Cl)C(=O)NC2=O)c2ccccc21 , and I need its recorded IC50.
Result: > 10 µM

Problem: Recorded IC50 for O=c1cc(-c2cccc3c2Sc2ccccc2S3)oc(N2CCOCC2)c1 , please?
Result: > 10 µM

Problem: Return reported IC50; argument: O=C1N=C(NCc2cccs2)S/C1=C\c1ccc2ncccc2c1
Result: > 5 µM

Problem: Look up IC50: Cn1cncc1[C@@](N)(c1ccc(Cl)cc1)c1ccc2c(c1)c(-c1cccc(Cl)c1)cc(=O)n2C
Result: 1.42 µM

Problem: If you can, please state the reported IC50 value of C[C@]1(O)C[C@@H](c2nc(-c3ccc4ccc(-c5ccccc5)nc4c3)c3c(N)nccn32)C1 .
Result: > 2.56 µM

Problem: # IC50 lookup, item COc1ccc(C2=N[C@@H](c3ccc(Cl)cc3)[C@@H](c3ccc(Cl)cc3)N2C(=O)N2CCNC(=O)C2)c(OC(C)C)c1
Result: > 8 µM

Problem: Requested read-out: IC50. Entry: COc1cc([C@@H]2c3cc4c(cc3[C@@H](O[C@@H]3O[C@@H]5CO[C@@H](C)O[C@H]5[C@H](O)[C@H]3O)[C@H]3COC(=O)[C@H]23)OCO4)cc(OC)c1O [ETOPOSIDE]
Result: 5.83 µM
